Measured viability, T/C values are reported for all entries that follow.
System: 323965-272-R-J2-PDC complex spheroid growth, % test/control;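 also: compound exposure lasted 7 days starting three days after spheroid seeding; 100% = DMSO vehicle control wells with viability set relative to vehicle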
Experiment: Anticancer human tumor 323965-272-R-J2-PDC patient-derived pancreatic carcinoma cell line growth inhibition [Asc]
Details: second compound 3 µM; first compound 0.0316 µM; hits give low values

molecule	measurement target	viability, T/C
C#Cc1c(F)ccc2cc(O)cc(-c3ncc4c(N5CC6CCC(C5)N6)nc(OCC56CCCN5CC(F)C6)nc4c3F)c12 (configuration not stated) + CCN1C(C(=O)NC23CCC(C(=O)O)(CC2)CC3)C(c2cccc(Cl)c2F)C2(C(=O)Nc3cc(Cl)ccc32)C12CCCCC2	323965-272-R-J2-PDC complex spheroid growth, % test/control	102%
CNC(C)C(=O)NC1CN(S(=O)(=O)c2cccc(S(=O)(=O)N3CCC4CCC(C(=O)NC(c5ccccc5)c5ccccc5)N4C(=O)C(NC(=O)C(C)NC)C3)c2)CCC2CCC(C(=O)NC(c3ccccc3)c3ccccc3)N2C1=O (configuration not stated) + CCN1C(C(=O)NC23CCC(C(=O)O)(CC2)CC3)C(c2cccc(Cl)c2F)C2(C(=O)Nc3cc(Cl)ccc32)C12CCCCC2	323965-272-R-J2-PDC complex spheroid growth, % test/control	90.3%

Values were extracted from PubChem BioAssay AID1963425.
